Hey, just so you know, these numbers are from the Human Domainome abundance scans (Beltran et al. 2025).

B1: Activity-dependent neuroprotector homeobox protein, residues 770 to 810; numbered along this chain, Q9H2P0 (parent)
chain: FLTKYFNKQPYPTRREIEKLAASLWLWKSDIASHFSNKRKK

# Variants of: B1
# run description: abundance fitness (aPCA) (normalised: wild type 0, dead -1); higher = more abundant; growth selection in yeast, the domain comes from the species named
# condition details: Homo sapiens
Measured abundance fitness accompanies every entry in the list below.

N7I | -1.17
P10E | 0.158
F1P | -0.375

What value of abundance fitness has been recorded for this entry: `A32P`
-0.383

// returns reported abundance fitness for input `T13H`
-0.135

Fill blank: measured abundance fitness of the variant `F35C` is ____.
-0.347

// lookup abundance fitness for `A22M`
-0.084

Need abundance fitness of `K19Q` , thanks.
-0.276
